Target: cyclin E/CDK2 enzyme (Homo sapiens)
Construct: made in house; host or cells: Sf9 insect cells, recombinant baculovirus
Assay: CDK2 ELISA kinase assay (phospho-Rb ser 795 detection)
Assay type: biochemical
Settings: In Vitro Enzyme Assays, read-out: CDK2 IC50
property_name: IC50 (µM)
Please state the figure in µM; there is no need to write the unit.

Examples from the recorded data:
compound=O=C1NC(=O)c2ccc(Br)cc2/C1=C/NCc1ccc(OCCN2CCCC2)c(O)c1 test_target="cyclin E/CDK2 enzyme (Homo sapiens)" property_name=IC50 quantitative_result=1.1
compound=CCCNc1ccc(CN/C=C2\C(=O)NC(=O)c3ccc(I)cc32)cc1O test_target="cyclin E/CDK2 enzyme (Homo sapiens)" property_name=IC50 quantitative_result=1.9
compound=CCCOc1cnc(CNC=C2C(=O)NC(=O)c3ccc(Br)cc32)cc1O test_target="cyclin E/CDK2 enzyme (Homo sapiens)" property_name=IC50 quantitative_result=1.9
compound="O=C1NC(=O)c2ccc(I)cc2/C1=C/Nc1ccc(N2CCC[C@H]2CO)c(F)c1 (stereo in doubt)" test_target="cyclin E/CDK2 enzyme (Homo sapiens)" property_name=IC50 quantitative_result=31

Kindly review the next compound as well.
Measured IC50 of `CC(=O)Nc1ccc2c(c1)/C(=C/Nc1ccc(CN3CCCCC3)cc1)C(=O)NC2=O` : 8.1
